Attribution: patent US20200216439A1

Biological target: catalytic domain of human Bub1 (amino acids 704-1085) (Homo sapiens, UniProt O43683)
Construct: catalytic domain of human Bub1 (amino acids 704-1085); His6 (N); made in house; host or cells: Hi5 insect cells
Sequence (O43683 704-1085): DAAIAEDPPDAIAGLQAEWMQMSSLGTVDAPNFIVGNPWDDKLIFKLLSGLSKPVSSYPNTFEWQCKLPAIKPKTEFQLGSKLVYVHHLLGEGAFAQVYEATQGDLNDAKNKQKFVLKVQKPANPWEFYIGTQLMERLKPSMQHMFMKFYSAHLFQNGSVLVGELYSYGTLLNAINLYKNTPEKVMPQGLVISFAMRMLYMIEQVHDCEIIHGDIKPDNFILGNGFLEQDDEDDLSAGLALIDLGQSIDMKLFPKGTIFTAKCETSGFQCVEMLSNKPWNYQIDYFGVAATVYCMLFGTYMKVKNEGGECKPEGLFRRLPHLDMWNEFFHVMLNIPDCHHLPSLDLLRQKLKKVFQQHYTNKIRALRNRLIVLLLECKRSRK
Assay: Bub1 kinase assay (TR-FRET)
Type: biochemical
Conditions: TR-FRET; ATP 10 μM, peptide substrate 1 μM; 60 min at 22° C.; average or median if tested more than once; read-out: Inhibition of Bub1 kinase IC50
Description: […] In a typical assay 11 different concentrations of each compound (0.1 nM, 0.33 nM, 1.1 nM, 3.8 nM, 13 nM, 44 nM, 0.15 μM, 0.51 μM, 1.7 μM, 5.9 μM and 20 μM) were tested in duplicate within the same microtiter plate. […] Subsequently, the amount of product was evaluated by measurement of the resonance energy transfer from the Eu-chelate-antibody complex recognizing the Phosphoserine residue to the streptavidin-XL665 bound to the biotin moiety of the peptide. […]
property: IC50 (nM)

CC(=O)Nc1cc(-c2[nH]c3c(c2Nc2ccc(C)cc2)C(=O)CN(S(=O)(=O)C(C)C)C3)ccn1	31
O=C1CN(C(=O)N2CCOCC2)Cc2[nH]c(-c3ccncc3OCC(F)F)c(Nc3ccccc3)c21	20
CC(C)OC(=O)N1CC(=O)c2c([nH]c(-c3ccncc3)c2Nc2ccccc2)C1	11
Cc1ccc(Nc2c(-c3ccnc(N)c3)[nH]c3c2C(=O)CN(C(=O)OC(C)(C)C)C3)cc1	499
CC(=O)Nc1cc(-c2[nH]c3c(c2Nc2ccccc2)C(=O)CN(C(=O)CCS(C)(=O)=O)C3)ccn1	3
COc1ccc(C(=O)Nc2cc(-c3[nH]c4c(c3Nc3ccccc3)C(=O)CN(C(=O)OC(C)(C)C)C4)ccn2)cc1	37
O=C1CN(C(=O)NC2CCOCC2)Cc2[nH]c(-c3ccncc3)c(Nc3ccccc3)c21	55
O=C1CN(C(=O)N2CCOCC2)Cc2[nH]c(-c3ccncc3OCC(F)(F)F)c(Nc3ccccc3)c21	73
Cc1cc(F)ccc1C(=O)Nc1cc(-c2[nH]c3c(c2Nc2ccccc2)C(=O)CNC3)ccn1	81
COc1cnccc1-c1[nH]c2c(c1Nc1ccccc1)C(=O)CN(C(=O)C1CC1)C2	8
Cc1nccc(-c2[nH]c3c(c2Nc2ccccc2)C(=O)CNC3)n1	949
Nc1cc(-c2[nH]c3c(c2Nc2ccccc2)C(=O)CNC3)ccn1	794
O=C1CN(S(=O)(=O)C2CC2)Cc2[nH]c(-c3ccncc3)c(Nc3ccccc3)c21	9
CN(C)CCOc1cnccc1-c1[nH]c2c(c1Nc1ccccc1)C(=O)CN(S(=O)(=O)N(C)C)C2	6
